biological target: T1, human CD33 on the AML-derived HL60 cell line (human, UniProt P20138 18-364); experiment: FACS Scatchard analysis on HL60 cells
T1 construct: whole, on cells; also called CD33 expressing HL60 cell line
T1 sequence (P20138 18-364): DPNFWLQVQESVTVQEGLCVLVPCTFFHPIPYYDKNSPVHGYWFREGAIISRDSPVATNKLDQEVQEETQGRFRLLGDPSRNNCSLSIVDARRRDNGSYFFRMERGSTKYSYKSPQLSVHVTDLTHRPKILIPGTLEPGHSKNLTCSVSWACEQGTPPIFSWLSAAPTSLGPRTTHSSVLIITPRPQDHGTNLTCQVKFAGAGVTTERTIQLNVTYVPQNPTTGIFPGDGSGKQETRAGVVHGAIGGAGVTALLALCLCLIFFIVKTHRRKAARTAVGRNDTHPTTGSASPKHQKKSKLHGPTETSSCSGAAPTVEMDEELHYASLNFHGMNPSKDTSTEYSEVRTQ
reported_endpoint: Kd (nM)

[
  {
    "binder": "283-07-03 (antibody, human IgG1, kappa, V domains shown, Fully human monoclonal antibody; also called No 12; Clone ID# 283-07-03) VH: QVELVQSGAEVKKPGSSVKVSCKASGGTFSSYAISWVRQAPGQGLEWMGRIIPILGMANYAQKFQGRVTITADKSTYTAYMELSSLRSEDTAVYYCAREGGVDWYFDLWGRGTLVTVSS VL: DIQLTQSPSSLSASVGDRVTITCRASQGISSALAWYQQKPGKAPKFMIYDASSLESGVPSRFSGSGSGTDFTLTISSLQPEDFATYYCQQFNSSITFGQGTKLEIKR",
    "assay_result": 0.3
  }
]
